This section lists Kd readings for Gal-8C (Homo sapiens, UniProt O00214).
Give the number first and the unit second.

Cc1cccc(CO[C@@H]2[C@@H](OCc3nc4ccc(C(=O)O)cc4n3C)[C@@H](O)[C@@H](CO)O[C@@H]2Sc2ccc(Cl)c(Cl)c2)c1 [Compound 8b]	303 µM
Cn1c(CO[C@H]2[C@@H](O)[C@@H](CO)O[C@H](Sc3ccc(Cl)c(Cl)c3)[C@@H]2OCc2cn(-c3ccc(C(=O)O)cc3)nn2)nc2ccc(C(=O)O)cc21 [Compound 16c]	201 µM

Item Cn1c(CO[C@H]2[C@@H](O)[C@@H](CO)O[C@H](Sc3ccc(Cl)c(Cl)c3)[C@@H]2OCc2ccc(Cl)c(Cl)c2)nc2ccc(C(=O)O)cc21 [Compound 8e] was tested on Gal-8C (Homo sapiens, UniProt O00214); the reported Kd is 577 µM

Known value: Gal-8C (Homo sapiens, UniProt O00214) Kd of the compound COC(=O)c1ccccc1-n1cc(CO[C@@H]2[C@@H](OCc3nc4ccc(C(=O)O)cc4n3C)[C@@H](O)[C@@H](CO)O[C@@H]2Sc2ccc(Cl)c(Cl)c2)nn1 [Compound 15a] equals 355 µM

Bench note, Gal-8C (Homo sapiens, UniProt O00214): Cc1ccc(CO[C@@H]2[C@@H](OCc3nc4ccc(C(=O)O)cc4n3C)[C@@H](O)[C@@H](CO)O[C@@H]2Sc2ccc(Cl)c(Cl)c2)cc1 [Compound 8c] , Kd reads 256 µM

The origin of these recorded values is paper PMC11850616.
